Data origin: ChEMBL document CHEMBL2202954

Test system: T47D
Experiment: Cytotoxicity against human T47D cells assessed as cellular growth at 10 uM by SRB assay
Assay type: functional
Assign class by Activity: not lower than 90% means Met; lower than 90% means Not met.

{"columns": ["smiles", "assigned_label"],
 "data": [
  ["O=C(NCc1cccnc1)c1sc2cc([N+](=O)[O-])ccc2c1Cl", "Not met"],
  ["O=C1N=C(c2ccccc2)S/C1=C\\c1ccc2c(c1)OCO2", "Met"],
  ["O=S(=O)(Oc1ccc(-c2cnc3ccccc3n2)cc1)c1ccccc1", "Not met"],
  ["Cc1ccc2c(c1)N/C(=C/C(=O)c1ccc(Cl)cc1)C(=O)O2", "Met"],
  ["CC1(C)CC(=O)c2cc3c(N)c(C(=O)NCc4ccccc4)sc3nc2C1", "Met"]
]}

Exercise: hey, is Activity for this one >= 90%? Nc1c(C(=O)Nc2cccc(Cl)c2)sc2nc3c(cc12)C(=O)CCC3
Solution: Not met

Exercise: Dear colleague, could you confirm whether COc1cccc(C(=O)Nc2nc3ccc(Cl)cc3s2)c1 has Activity at or above 90%?
Solution: Not met

Exercise: Dear colleague, could you confirm whether Cc1ccc(C(=O)/C=C2/Nc3ccc(C)cc3OC2=O)cc1 has Activity at or above 90%?
Solution: Met

Exercise: Check if Activity >= 90% (inclusive). Item: COc1ccc2nc(NC(=O)c3ccc(F)cc3)sc2c1
Solution: Not met

Exercise: Say whether Nc1c(C(=O)NCc2ccccc2)sc2nc3c(cc12)C(=O)CCC3 shows Activity of 90% or more.
Solution: Met

Exercise: // inclusive: Activity at least 90%? input: COc1ccc(NC(=O)c2sc3nc4c(cc3c2N)C(=O)CCC4)cc1
Solution: Met

Exercise: In plain terms: is recorded Activity at least 90% for CC1(C)CCc2cc(-c3ccn(S(=O)(=O)c4ccccc4Cl)n3)ccc2O1 ?
Solution: Not met

Exercise: Item Cc1ccc(Cl)cc1NC(=O)c1sc2nc3c(cc2c1N)C(=O)CCC3 with Activity of 90% or above?
Solution: Not met

Exercise: Determine whether this compound has Activity no lower than 90%: Nc1c(C(=O)Nc2ccccc2F)sc2nc3c(cc12)C(=O)CCC3
Solution: Not met

Exercise: Would you say Clc1ccc(-c2nc(-c3cccs3)no2)c(Cl)c1 shows Activity at minimum 90%?
Solution: Not met

###

Test system: SK-MEL-2
Experiment: Cytotoxicity against human SK-MEL-2 cells assessed as cellular growth at 10 uM by SRB assay
Assay type: functional
readout: Activity (%)
All answers are understood in %, so give the number only.

Below, 4 compounds whose answers are already recorded.
{"columns": ["smiles", "uom", "Activity"],
 "data": [
  ["Nc1c(C(=O)Nc2ccc(Cl)c(Cl)c2)sc2nc(-c3cccs3)ccc12", "%", 58.47],
  ["O=C(NCCc1ccccc1)c1cc2cccc([N+](=O)[O-])c2[nH]1", "%", 101.4],
  ["CC1(C)CC(=O)c2cc3c(N)c(C(=O)Nc4ccc(Cl)cc4)sc3nc2C1", "%", 100.96],
  ["Cc1ccc(NC(=O)c2sc3nc(-c4cccs4)ccc3c2N)cc1C", "%", 82.1]
]}

Exercise: Give reported Activity for Cc1cccc(-c2nc(-c3cccs3)no2)c1 (SK-MEL-2)
Solution: 100.25

Exercise: Determine reported Activity for COc1ccc2[nH]c(C(=O)NCc3ccccc3)cc2c1 ; test system: SK-MEL-2.
Solution: 108.1

Exercise: Please tell me the measured Activity for COc1ccc(S(=O)(=O)n2ccc(-c3ccc4c(c3)CCC(C)(C)O4)n2)cc1 ; system: SK-MEL-2.
Solution: 84.41

Exercise: For SK-MEL-2, give the measured Activity of the entry Clc1ccc(-c2nc(-c3cccs3)no2)c(Cl)c1
Solution: 122.72

###

// reported Activity for each item listed
Tested on: SK-OV-3
Test: Cytotoxicity against human SKOV3 cells assessed as cellular growth at 10 uM by SRB assay
Format: functional
# number only, unit % dropped from output

Reference set (5 entries):
{"columns": ["smiles", "assay_system", "Activity (%)"],
 "data": [
  ["CC1(C)CCc2cc(-c3ccn(S(=O)(=O)c4cccc(C(F)(F)F)c4)n3)ccc2O1", "SK-OV-3", 96.16],
  ["CC1(C)CC(=O)c2cc3c(N)c(C(=O)Nc4ccccc4Cl)sc3nc2C1", "SK-OV-3", 107.93],
  ["Cc1ccc2c(c1)N/C(=C/C(=O)c1ccc(Cl)cc1)C(=O)O2", "SK-OV-3", 110.03],
  ["Nc1c(C(=O)Nc2cccc(Cl)c2)sc2nc3c(cc12)C(=O)CCC3", "SK-OV-3", 35.17],
  ["Nc1c(C(=O)Nc2ccccc2F)sc2nc3c(cc12)C(=O)CCC3", "SK-OV-3", 13.58]
]}

Exercise: Please give measured Activity of the following entry: COc1ccc(S(=O)(=O)n2ccc(-c3ccc4c(c3)CCC(C)(C)O4)n2)cc1
Solution: 90.41

Exercise: Return Activity (reported value) for this molecule: O=C(Nc1ccc2oc(=O)ccc2c1)c1ccc(-c2ccc(Br)cc2)o1
Solution: 112.03

Exercise: Entry O=c1/c(=C/c2ccc(Cl)cc2Cl)sc2nc(-c3ccccc3)nn12 needs its Activity filled in; supply it.
Solution: 109.75

Exercise: Input Clc1ccc(-c2nc(-c3cccs3)no2)c(Cl)c1 , output reported Activity.
Solution: 93.87

Exercise: Give the measured Activity for O=C(NCCc1ccccc1)c1[nH]c2ccccc2c1Cl
Solution: 91.3

Exercise: Supply Activity value. Item: O=C(NCc1cccnc1)c1sc2cc([N+](=O)[O-])ccc2c1Cl
Solution: 91.06

###

Test system: U-251
Assay: Cytotoxicity against human U251 cells assessed as cellular growth at 10 uM by SRB assay
Assay type: functional
A collection of compounds and their measured Activity
The figure you give is taken to be in %; do not add the unit.

Exercise: Identify measured Activity associated with Cc1ccc2c(c1)N/C(=C/C(=O)c1ccc(Cl)cc1)C(=O)O2
Solution: 100.94

Exercise: Look up and report measured Activity for this entry: O=C(Nc1nc2ccccc2s1)c1ccc(F)cc1
Solution: 99.72

Exercise: Find the measured Activity of O=C(Nc1ccc2oc(=O)ccc2c1)c1ccc(-c2ccc(Cl)c(Cl)c2)o1 and report it.
Solution: 92.91

###

System: A498
Experiment: Cytotoxicity against human A498 cells assessed as cellular growth at 10 uM by SRB assay
Format: functional
readout: Activity (%)
Record the value in %, omitting the unit from your answer.

Exercise: Please give the documented Activity of O=C(NCCc1ccccc1)c1[nH]c2ccccc2c1Cl
Solution: 81.46

Exercise: Read off the recorded Activity for O=C(Nc1ccc2oc(=O)ccc2c1)c1ccc(-c2ccc(Cl)c(Cl)c2)o1
Solution: 101.16

Exercise: Input Cc1ccc(C(=O)/C=C2/Nc3ccc(C)cc3OC2=O)cc1 , output reported Activity.
Solution: 86.34

###

Test system: MDA-MB-435
Test: Cytotoxicity against human MDA-MB-435 cells assessed as cellular growth at 10 uM by SRB assay
Assay type: functional
readout: Activity (%)
Enter your answer as a number in %; do not include the unit.

{"columns": ["smiles", "Activity [%]"],
 "data": [
  ["COc1cccc(C(=O)Nc2nc3ccc(Cl)cc3s2)c1", 34],
  ["O=C(Nc1nc2ccccc2s1)c1ccc(F)cc1", 100.56],
  ["O=S(=O)(Oc1ccc(-c2cnc3ccccc3n2)cc1)c1ccccc1", 96.88],
  ["Cc1ccc(NC(=O)c2sc3nc4c(cc3c2N)C(=O)CCC4)c(Br)c1", 94.29]
]}

Exercise: Please look at O=c1/c(=C/c2ccccc2Cl)sc2nc(-c3ccccc3)nn12 and tell me its recorded Activity on MDA-MB-435.
Solution: 78.08

###

Measured Activity, listed per entry.
Test system: SN12C
Assay: Cytotoxicity against human SN12C cells assessed as cellular growth at 10 uM by SRB assay
Format: functional
The answer should read as a number with its unit following.

Known results for compounds:
{"columns": ["smiles", "readout", "result_value"],
 "data": [
  ["COc1ccc(Cl)cc1C(=O)Nc1nc2ccc(Cl)cc2s1", "Activity", "91.7%"],
  ["Clc1ccccc1Nc1nnc(-c2ccncc2)s1", "Activity", "86%"],
  ["O=C1N=C(c2ccccc2)S/C1=C\\c1ccc2c(c1)OCO2", "Activity", "94.15%"],
  ["CC1(C)CC(=O)c2cc3c(N)c(C(=O)NCc4ccccc4)sc3nc2C1", "Activity", "98.59%"]
]}

Okay, next one:
Exercise: Read off the recorded Activity for Nc1c(C(=O)NCc2ccccc2)sc2nc3c(cc12)C(=O)CCC3
Solution: 101.11%

###

Tested on: CCRF-CEM
Test: Cytotoxicity against human CCRF-CEM cells assessed as cellular growth at 10 uM by SRB assay
Assay type: functional
readout: Activity
Record the result as number plus unit.

Here's what some known entries look like.
{"columns": ["smiles", "assay_system", "result_value"],
 "data": [
  ["CC1(C)CC(=O)c2cc3c(N)c(C(=O)NCc4ccccc4)sc3nc2C1", "CCRF-CEM", "99.55%"],
  ["Cc1ccc(NC(=O)c2sc3nc4c(cc3c2N)C(=O)CCC4)cc1Cl", "CCRF-CEM", "104.3%"],
  ["COc1ccc2[nH]c(C(=O)NCc3ccccc3)cc2c1", "CCRF-CEM", "85.19%"]
]}

Exercise: Please list Activity recorded for the compound Nc1c(C(=O)Nc2ccccc2F)sc2nc3c(cc12)C(=O)CCC3
Solution: 26.78%

Exercise: Specify Activity for O=C(Nc1ccc2oc(=O)ccc2c1)c1ccc(-c2ccc(Br)cc2)o1 and stop.
Solution: 103.74%

Exercise: Given Clc1ccc(-c2nc(-c3cccs3)no2)cc1 , respond with its Activity.
Solution: 78.29%

Exercise: // Input: O=c1/c(=C/c2ccccc2Cl)sc2nc(-c3ccccc3)nn12 . Output its Activity only.
Solution: 56.07%

Exercise: Return the recorded Activity value; entry: Cc1ccc(NC(=O)c2sc3nc(-c4cccs4)ccc3c2N)cc1C
Solution: 97.34%

Exercise: Tell me its Activity given Cc1ccc(C(=O)/C=C2/Nc3ccc(C)cc3OC2=O)cc1 as the entry.
Solution: 77.12%

Exercise: Identify measured Activity associated with CC1(C)CC(=O)c2cc3c(N)c(C(=O)Nc4ccc(Cl)cc4)sc3nc2C1
Solution: 97.21%

Exercise: Consider the compound Cc1ccc(C2=N/C(=C\c3ccccc3)C(=O)O2)cc1 and give its recorded Activity.
Solution: 94.95%

Exercise: For the compound CC1(C)CCc2cc(-c3ccn(S(=O)(=O)c4ccc(Cl)cc4)n3)ccc2O1 , report Activity.
Solution: 64.16%

Exercise: Return reported Activity. Input compound: COc1cc(/C=c2/sc3nc4ccccc4n3c2=O)cc(I)c1O
Solution: 83.8%

Exercise: Let me know recorded Activity for O=C(NCCc1ccccc1)c1cc2cccc([N+](=O)[O-])c2[nH]1 , thanks.
Solution: 86.81%

Exercise: Output measured Activity for this item: COc1ccc(NC(=O)c2sc3nc4c(cc3c2N)C(=O)CCC4)cc1
Solution: 88.17%

Exercise: Identify measured Activity corresponding to O=C(NCCc1ccccc1)c1[nH]c2ccccc2c1Cl
Solution: 86.13%

Exercise: Supply recorded Activity for N#Cc1ccc(NC(=O)c2sc3nc4c(cc3c2N)C(=O)CCC4)cc1 here.
Solution: 99.79%

Exercise: Provide measured Activity value, entry: c1ccc(-c2nc(-c3cccs3)no2)cc1
Solution: 97.84%

Exercise: Return reported Activity. Input compound: O=S(=O)(Oc1ccc(-c2cnc3ccccc3n2)cc1)c1ccccc1
Solution: 85.64%
